The values you see were collected from patent US8710092B2.

Molecular target: 5-HT1D receptor (Homo sapiens, UniProt P28221)
Sequence (P28221 whole entry): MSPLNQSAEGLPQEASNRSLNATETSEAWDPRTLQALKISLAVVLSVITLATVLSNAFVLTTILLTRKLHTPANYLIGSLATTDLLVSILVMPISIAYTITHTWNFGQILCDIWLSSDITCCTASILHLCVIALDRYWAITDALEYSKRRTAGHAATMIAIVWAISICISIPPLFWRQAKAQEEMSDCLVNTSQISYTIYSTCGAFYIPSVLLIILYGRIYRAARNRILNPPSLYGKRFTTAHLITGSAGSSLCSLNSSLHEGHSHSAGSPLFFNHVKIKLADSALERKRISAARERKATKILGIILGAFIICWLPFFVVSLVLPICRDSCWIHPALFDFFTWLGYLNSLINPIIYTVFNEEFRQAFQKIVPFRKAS
Assay: Membrane based GTPγS assay, agonist activity at 5-HT1D
Conditions: 5-CT reference agonist, FIG. 6
measured_attribute: pEC50
The read-out pEC50 is expressed as -log10 of concentration in moles per litre.

// query Quick one: pEC50 of CN1CC(C(=O)N[C@]2(C)O[C@@]3(O)C4CCCN4C(=O)[C@H](Cc4ccccc4)N3C2=O)CC2c3cccc4c3c(cn4C)CC21 (stereo partly shown) [MAP0057, 1-Methyl-Dihydroergotamine] ?
// result 9.35

* * *

Target: 5-HT2c receptor (Homo sapiens)
Experiment: FLIPR agonist assay at the 5-HT2c receptor (analogous to Example 2)
Assay type: cell-based
measured_attribute: pEC50
The read-out pEC50 is expressed as -log10 of concentration in moles per litre.

// query Quick one: pEC50 of CN1C[C@H](C(=O)N[C@]2(C)O[C@@]3(O)[C@@H]4CCCN4C(=O)[C@H](Cc4ccccc4)N3C2=O)C=C2c3cccc4[nH]cc(c34)C[C@H]21 ?
// result 5.30

* * *

Collected EC50 values appear next to each entry.
Target: 5-HT2B receptor (Homo sapiens)
Construct: Millipore, Inc. (GPCR Profiler Service Laboratory, St. Charles, Mo.)
Sequence (P41595 whole entry): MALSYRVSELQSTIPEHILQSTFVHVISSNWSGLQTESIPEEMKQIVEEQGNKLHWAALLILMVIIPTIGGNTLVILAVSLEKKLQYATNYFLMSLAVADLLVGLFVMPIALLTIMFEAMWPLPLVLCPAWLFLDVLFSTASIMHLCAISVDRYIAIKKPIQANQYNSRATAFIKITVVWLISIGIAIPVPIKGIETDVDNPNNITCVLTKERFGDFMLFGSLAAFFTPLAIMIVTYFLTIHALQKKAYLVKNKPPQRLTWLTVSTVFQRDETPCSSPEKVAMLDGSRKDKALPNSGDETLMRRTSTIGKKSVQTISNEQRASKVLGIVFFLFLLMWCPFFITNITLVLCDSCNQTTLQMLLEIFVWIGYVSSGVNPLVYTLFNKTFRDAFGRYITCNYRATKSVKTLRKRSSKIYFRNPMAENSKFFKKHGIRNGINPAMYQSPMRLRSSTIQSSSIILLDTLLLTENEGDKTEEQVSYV
Test: FLIPR assay, agonist selectivity at the 5-HT2B receptor
Assay type: cell-based
The reply should contain only the number, in nM.

// query Quick one: EC50 of CN1C[C@H](C(=O)N[C@]2(C)O[C@@]3(O)[C@@H]4CCCN4C(=O)[C@H](Cc4ccccc4)N3C2=O)C[C@@H]2c3cccc4[nH]cc(c34)C[C@H]21 [dihydroergotamine] ?
// result 260

Proceeding to the next compound to report its EC50.
// query Quick one: EC50 of CN1C[C@H](C(=O)N[C@]2(C)O[C@@]3(O)[C@@H]4CCCN4C(=O)[C@H](Cc4ccccc4)N3C2=O)C=C2c3cccc4[nH]cc(c34)C[C@H]21 ?
// result 160

* * *

Target: 5-HT2c receptor (Homo sapiens)
Sequence (P28335 33-458): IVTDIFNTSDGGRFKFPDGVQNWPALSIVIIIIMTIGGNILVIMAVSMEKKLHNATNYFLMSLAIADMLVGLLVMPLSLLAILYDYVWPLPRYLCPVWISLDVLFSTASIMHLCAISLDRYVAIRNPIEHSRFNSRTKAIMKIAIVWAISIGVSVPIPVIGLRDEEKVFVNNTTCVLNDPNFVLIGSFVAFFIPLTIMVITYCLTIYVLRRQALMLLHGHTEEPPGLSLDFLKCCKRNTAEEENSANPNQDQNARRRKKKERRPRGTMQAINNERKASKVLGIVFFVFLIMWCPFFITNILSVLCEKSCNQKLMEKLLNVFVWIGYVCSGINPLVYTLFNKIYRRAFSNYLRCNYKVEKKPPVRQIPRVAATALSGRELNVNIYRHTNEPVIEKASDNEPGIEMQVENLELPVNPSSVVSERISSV
Test: FLIPR antagonist assay at the 5-HT2c receptor (analogous to Example 3)
Collected IC50 values appear next to each entry.

// query Quick one: IC50 of CN1C[C@H](C(=O)N[C@]2(C)O[C@@]3(O)[C@@H]4CCCN4C(=O)[C@H](Cc4ccccc4)N3C2=O)C[C@@H]2c3cccc4[nH]cc(c34)C[C@H]21 [dihydroergotamine] ?
// result 280 nM

---
// query Quick one: IC50 of CN1CC(C(=O)N[C@]2(C)O[C@@]3(O)C4CCCN4C(=O)[C@H](Cc4ccccc4)N3C2=O)CC2c3cccc4c3c(cn4C)CC21 (some centres unmarked) [MAP0057, 1-Methyl-Dihydroergotamine] ?
// result 460 nM
